Source: patent US20240018237A1

Target: T1, human ROR1 (full-length, on the cell surface) (human, UniProt Q01973 30-937)
T1 construct: whole, on cells; the tumour cell lines carry their own ROR1; also called Ba/F3-ROR1 cells; Jeko-1
T1 sequence (Q01973 30-937): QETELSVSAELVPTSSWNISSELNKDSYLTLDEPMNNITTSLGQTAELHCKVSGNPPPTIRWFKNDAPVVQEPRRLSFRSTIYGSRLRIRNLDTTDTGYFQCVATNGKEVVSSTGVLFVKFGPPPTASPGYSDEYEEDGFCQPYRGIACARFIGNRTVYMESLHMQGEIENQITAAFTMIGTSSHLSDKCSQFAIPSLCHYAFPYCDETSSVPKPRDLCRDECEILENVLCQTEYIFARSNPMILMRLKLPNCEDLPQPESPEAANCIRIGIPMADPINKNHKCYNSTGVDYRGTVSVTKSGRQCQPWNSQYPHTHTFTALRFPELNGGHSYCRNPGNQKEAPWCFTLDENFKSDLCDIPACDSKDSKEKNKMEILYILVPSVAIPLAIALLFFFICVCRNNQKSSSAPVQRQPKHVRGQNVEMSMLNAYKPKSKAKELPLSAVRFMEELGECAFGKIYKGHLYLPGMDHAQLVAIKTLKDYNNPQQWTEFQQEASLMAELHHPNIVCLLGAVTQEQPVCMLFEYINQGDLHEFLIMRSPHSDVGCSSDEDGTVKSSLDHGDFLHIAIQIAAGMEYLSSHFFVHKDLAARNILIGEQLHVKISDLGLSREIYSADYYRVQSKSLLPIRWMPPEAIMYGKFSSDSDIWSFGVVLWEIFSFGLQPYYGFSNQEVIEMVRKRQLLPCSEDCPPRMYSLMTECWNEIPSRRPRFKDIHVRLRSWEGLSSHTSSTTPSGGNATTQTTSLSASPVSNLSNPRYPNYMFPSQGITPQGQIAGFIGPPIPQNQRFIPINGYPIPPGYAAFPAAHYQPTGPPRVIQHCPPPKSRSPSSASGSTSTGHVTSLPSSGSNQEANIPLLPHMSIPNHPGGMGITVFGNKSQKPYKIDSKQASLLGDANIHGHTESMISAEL
Test: flow cytometry, A549 cells
EC50 for assorted binders
State just the number; it will be interpreted in nM.

Some solved entries appear below for comparison.
binder	EC50 / nM
19F6-Hu24 (antibody, human IgG1, kappa, V domains shown, humanized, human IgG1 / kappa) VH: QVQLQESGPGLVKPSETLSLTCTVSGYSITSDYAWNWIRQPPGKGLEWMGYISYSGSIRYNPSLKDRITISRDTSKNQFSLKLSSVTAADTAVYYCARGEITYYFDYWGQGTLVTVSS VL: DIQMTQSPSSLSASVGDRVTITCQTSTDIDDDLNWYQQKPGKPPKLLISEGNTLETGVPSRFSGSGSGTDFTFTISSLQPEDIADYYCLQSNDLPLTFGAGTKLEIKR	0.24
3D8-Hu87 (antibody, human IgG1, kappa, V domains shown, humanized, human IgG1 / kappa) VH: EVQLVESGGGLVQPGGSLRLSCAASGFTFSSYAMSWVRQAPEKRLEWVSSISSGGSTYYPDSVKGRFTISRDNSKNTLYLQMNSLRAEDTAVYYCARVNYYGYGDYAMDYWGQGTLVTVSS VL: DIQMTQSPSSLSASVGDRVTITCQASQDISNYLSWFQQKPGKSPKTLIYRANRLVTGVPSRFSGSGSGTDYTFTISSLQPEDIATYYCLQYDEFPYTFGGGTKLEIKR	0.55

Inquiry: Tell me EC50 reported for 38F8-Hu64 (antibody, human IgG1, kappa, V domains shown, humanized, human IgG1 / kappa) VH: QVQLVESGGGLVKPGGSLRLSCAASGFTFSNYAMSWVRQAPEKRLEWVASISSGGPTYYPDSVKGRFTISRDNAKNSLYLQMNSLRAEDTAVYYCARGYRYDVNWYFDVWGAGTMVTVSS VL: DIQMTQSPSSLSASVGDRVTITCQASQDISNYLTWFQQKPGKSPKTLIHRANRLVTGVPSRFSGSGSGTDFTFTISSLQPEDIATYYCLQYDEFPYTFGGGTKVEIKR
Reply text: 0.31

Inquiry: Tell me EC50 reported for 3D8-Hu45 (antibody, human IgG1, kappa, V domains shown, humanized, human IgG1 / kappa) VH: EVQLVESGGGLVQPGGSLRLSCAASGFTFSSYAMSWVRQAPGKGLEWVSSINSGGSTYYPDSVKGRFTISRDNSKNTLYLQMNSLRAEDTAVYYCARVNYYGYGDYAMDYWGQGTLVTVSS VL: DIQMTQSPSSLSASVGDRVTITCQASQDINSYLSWFQQKPGKAPKTLIYRANRLVTGVPSRFSGSGSGTDFTFTISSLQPEDIATYYCLQYDEFPYTFGGGTKLEIKR
Reply text: 0.19

Inquiry: Tell me EC50 reported for 38F8-Hu36 (antibody, human IgG1, kappa, V domains shown, humanized, human IgG1 / kappa) VH: QVQLVESGGGLVKPGGSLRLSCAASGFTFSNYAMSWVRQAPGKGLEWVASISSGGPTYYADSVKGRFTISRDNAKNSLYLQMNSLRAEDTAVYYCARGYRYDVNWYFDVWGAGTMVTVSS VL: DIQMTQSPSSLSASVGDRVTITCQASQDINSYLTWFQQKPGKSPKTLIHRANRLVTGVPSRFSGSGSGTDFTFTISSLQPEDIATYYCLQYDEFPYTFGGGTKVEIKR
Reply text: 0.3
